- System: PC-3 prostate
- methodSummary: NCI-60 one-dose screen, 48 h
- studyConditions: 10 µM unless noted
About 83,000 compounds went through this panel and 20% of them were active in at least one assay; those are over-represented in the sample as a whole. The source made the active and inactive calls. Rule for the calls: active = growth percent below 10; inactive = the rest.
Answer with one of the outcomes yes = active, no = inactive

**Q:** What outcome does the record of this test show for Cc1nc(Cl)cc(N(c2cc(Cl)nc(C)n2)c2ncc(C(=O)Nc3c(C)cccc3Cl)s2)n1 ?
**A:** no

**Q:** Again, but for Cc1cc(C)c(S(=O)(=O)/N=c2/n(-c3ccccc3)nc3n2CCN3C2=NCCN2)c(C)c1
**A:** no

**Q:** What would you report for C=C(C)[C@@H]1CC[C@]2(C(=O)NCCCN)CC[C@]3(C)[C@H](CC[C@@H]4[C@@]5(C)CC[C@H](O)C(C)(C)[C@@H]5CC[C@]43C)[C@@H]12 ?
**A:** yes

**Q:** Please do the same for CC1(C)CC[C@]2(C(=O)O)CC[C@]3(C)[C@H](CC[C@@H]4[C@@]5(C)CCC(=O)C(C)(C)[C@@H]5CC[C@]43C)[C@H]2[C@H]1OC(=O)C(F)(F)F as well.
**A:** yes

**Q:** # iterate: Clc1ccc2nc(-c3ccc(-c4ccc(/C=N/NC5=NCCN5)cc4)s3)cn2c1
**A:** no

**Q:** Try this compound next: C=C(C)[C@@H]1CC[C@]2(C(N)=O)CC[C@]3(C)[C@H](CC[C@@H]4[C@@]5(C)C/C(=C/c6cccnc6)[C@H](O)C(C)(C)[C@@H]5CC[C@]43C)[C@@H]12
**A:** no

**Q:** And for CCOC(=O)COc1c(C)cc(SSc2cc(C)c(OCC(=O)OCC)c(C)c2)cc1C ?
**A:** no

**Q:** Moving on to NC(=O)c1cccc(-c2ccc(S(=O)(=O)Nc3ccc4c(c3)N(C(=O)C3CC3)CCC4)cc2)c1
**A:** no

**Q:** Consider next the compound O=C(Nc1cccc2ccccc12)c1cc2ccccc2cc1O in the same way.
**A:** yes

**Q:** And the next one, Cc1ccc(NC(=O)N[C@@H](Cc2cc(F)cc(F)c2)C(=O)N[C@@H]2C(=O)N3CCC[C@H]3C(=O)N3CCOC[C@H]3C(=O)N[C@@H](C)C(=O)N3C[C@H](C)C[C@H]3C(=O)O[C@H]2C)cc1 ?
**A:** no

**Q:** Next up: FC(F)(F)c1ccc2c(c1)Sc1ccccc1N2
**A:** no

**Q:** Also check O=C(CCN1CCCCC1)c1ccc(Cl)cc1
**A:** no

**Q:** Also check C=C(C)[C@@H]1CC[C@]2(C(=O)OC)CC[C@]3(C)[C@H](CC[C@@H]4[C@@]5(C)CC/C(=N\OCCC(=NCCC#N)NOCCC#N)C(C)(C)[C@@H]5CC[C@]43C)[C@@H]12
**A:** yes

**Q:** Same question, [2H]C1([2H])CCN(C(=O)C2CC2)c2cc(NS(=O)(=O)c3ccc(-c4cccc(C(N)=O)c4)cc3)ccc21 this time
**A:** no

**Q:** What do we get for CCCCCCSc1ncnc2nc[nH]c12 ?
**A:** no

**Q:** Please give the result for COc1ccc(C2=C(c3cn(C)c4ccccc34)C(=O)OC2)cc1OC too.
**A:** no

**Q:** And the next one, CC(C)CCSc1nc(N)nc2nc[nH]c12 ?
**A:** no

**Q:** Another compound: COc1ccc2c(c1)c(-c1noc(C(=O)c3cn(C)c4ncc(Br)cc34)n1)cn2C
**A:** no

**Q:** Item: CCOC(=O)CCC[P+](c1ccccc1)(c1ccccc1)c1ccccc1
**A:** no

**Q:** Follow-up item: Cc1cc(-c2ccc(N=Nc3c(S(=O)(=O)O)cc4cc(S(=O)(=O)O)cc(N)c4c3O)c(C)c2)ccc1N=Nc1cc(S(=O)(=O)O)c2ccccc2c1O
**A:** no

**Q:** Same again, this time with COC(=O)[C@]1(C)CC[C@]2(C)CC[C@]3(C)C(=CC(=O)[C@@H]4[C@@]5(C)CCC(=O)NC(C)(C)[C@@H]5CC[C@]43C)[C@@H]2C1
**A:** yes

Where do the numbers come from? From PubChem BioAssay (NCI).
